# measured target: d-enCas12a (Acidaminococcus sp., UniProt U2UMQ6 1-1307, E174R;S542R;K548R;D908A;E993A;D1235A)
# assay info: Spec-seq (native PAGE EMSA with sequencing of bound and unbound); 25 mM Tris-HCl pH 7.4, 150 mM KCl, 5 mM MgCl2, 10% glycerol, 1 mM DTT, 40 ng/uL salmon sperm DNA; 400 nM Cas12a, 480 nM crRNA, 50 nM library, 37 C 1 h; native PAGE at room temperature; high values mean tight binding;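 further: relative affinity from the bound to unbound sequence frequency ratio in Spec-seq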
# cond: protein: recombinant
Known binding signal of a selection of binders
Kindly provide the numeric value in lnKA only, without the unit symbol.

Examples from the recorded data:
{"binder": "CAGC (dsDNA) DNA 1: GCTATCTAGTGCTCAGTACGCACTGCAGCAGGAAACTTCTGGCAGGACCAGGTCATGAGATCGGAAGAGCACACGTCTGAACTCCAGTCA DNA 2: TGACTGGAGTTCAGACGTGTGCTCTTCCGATCTCATGACCTGGTCCTGCCAGAAGTTTCCTGCTGCAGTGCGTACTGAGCACTAGATAGC RNA: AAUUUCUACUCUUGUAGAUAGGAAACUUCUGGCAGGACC", "scale unit": "lnKA", "binding signal": -5.94}
{"binder": "CAGG (dsDNA) DNA 1: GCTATCTAGTGCTCAGTACGCACTGCAGGAGGAAACTTCTGGCAGGACCAGGTCATGAGATCGGAAGAGCACACGTCTGAACTCCAGTCA DNA 2: TGACTGGAGTTCAGACGTGTGCTCTTCCGATCTCATGACCTGGTCCTGCCAGAAGTTTCCTCCTGCAGTGCGTACTGAGCACTAGATAGC RNA: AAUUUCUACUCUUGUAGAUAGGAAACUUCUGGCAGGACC", "scale unit": "lnKA", "binding signal": -5.82}

Here's the next entry for you.
May I ask what binding signal has been recorded for TTAC (dsDNA) DNA 1: GCTATCTAGTGCTCAGTACGCACTGTTACAGGAAACTTCTGGCAGGACCAGGTCATGAGATCGGAAGAGCACACGTCTGAACTCCAGTCA DNA 2: TGACTGGAGTTCAGACGTGTGCTCTTCCGATCTCATGACCTGGTCCTGCCAGAAGTTTCCTGTAACAGTGCGTACTGAGCACTAGATAGC RNA: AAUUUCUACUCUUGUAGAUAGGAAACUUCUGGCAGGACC ?
-1.59

Where do the numbers come from? From paper PMC8222333.
